Below are pIC50 measurements against UniProt:P08684 drawn from the literature.
pIC50: −log10 of the molar value.

Past entries and their recorded results:
# molecule, pIC50
records = [
    ("CO[C@H]1CN(C2CCN(C(=O)c3cncn3[C@@H](C)c3ccccc3-c3ccc(F)cc3)CC2)CC[C@@H]1O", 8.30),
    ("CCCCN(C(=O)Nc1cc(C(N)=O)c(F)cc1F)C1CCN(Cc2ccc(Oc3ccc(C(=O)N4CCN(C)CC4)cc3)nc2C)CC1", "≤ 4.52"),
    ("C[C@@H](c1ccccc1-c1ccc(F)cc1)n1cncc1C(=O)N1CCC(F)(CN2CCOCC2)CC1", 8.43),
]

Lookup: pIC50 / UniProt:P08684 / C[C@@H](c1ccc(-c2ccc(C(=O)NC(C)(C)C)cn2)cc1)N1CC[C@](CC(C)(C)O)(c2ccccc2)OC1=O
4.80

# value lookup — system UniProt:P08684, readout pIC50, item COc1cnc(C(=O)Nc2ccc(F)c([C@@]3(C)N=C(N)SCC34CC(F)(F)C4)c2)cn1
≤ 5.00

Test system UniProt:P08684; read-out pIC50; what value for CO[C@H]1[C@@H](CF)OC(N)=N[C@]1(C)c1cc(NC(=O)c2cnc(OCF)cn2)ccc1F ?
≤ 4.70

API: value(readout= pIC50, system= UniProt:P08684, query= Cc1ncccc1Oc1ncnc(OC2CCN(C(=O)OC(C)C)CC2)c1C )
< 4.40

Notebook entry, UniProt:P08684 assay: pIC50 of COc1cnc(C(=O)Nc2ccc(F)c([C@@]3(C)N=C(N)O[C@H](C(C)(F)F)[C@@H]3F)c2)cn1 = ?
≤ 4.70

GET /values?readout=pIC50&system=UniProt:P08684&item= CC(C)C(O)(c1ccc2c3c(ccc2c1)C(=O)N(C)C3)c1c[nH]cn1 (stereo not drawn)
< 5.00

---

Below, IC50 values reported for Cytochrome P450 3A4 (Homo sapiens) across several publications.

# compound, reported-result
records = [
    ("C[C@H]1SC(N)=N[C@](C)(c2cccc(NC(=O)c3cnc(OCF)cn3)c2)[C@H]1F", "≥ 20 µM"),
]

Notebook: pull reported IC50 for Cytochrome P450 3A4 (Homo sapiens), entry Cc1nc(SC(C(=O)c2c[nH]c3ccccc23)c2ccccc2)sc1CC(N)=O (racemic)
2.7 µM

Report IC50 for Cc1cnc(Nc2cnn(CC#N)c2)nc1-c1ccc(C(=O)NCC#N)cc1 tested on Cytochrome P450 3A4 (Homo sapiens).
> 50 µM

What IC50 appears in the records for this compound with Cytochrome P450 3A4 (Homo sapiens)? C[C@H](c1ccc(F)cc1)n1cncc1CN1CCN(S(=O)(=O)c2cnc(N3CCC(S(C)(=O)=O)C3)s2)CC1 (stereo partly drawn)
0.0018 µM

Test system Cytochrome P450 3A4 (Homo sapiens); read-out IC50; what value for C[C@H]1SC(N)=N[C@](C)(c2cccc(NC(=O)c3cnc(C(F)F)cn3)c2)[C@H]1F ?
≥ 20 µM

Please state recorded IC50 (tested on Cytochrome P450 3A4 (Homo sapiens)) of CC(C)C(O)(c1ccc2cc3c(cc2c1)CNC3=O)c1c[nH]cn1 (stereo not drawn)
> 10 µM

---

Header: IC50 / Cytochrome P450 3A4 (Homo sapiens, UniProt P08684) / multiple publications

# compound, reported-property, reported-result
records = [
    ("C[C@H](C(=O)N[C@H](CO)c1ccc(F)c(Cl)c1)N1Cc2ccc(-c3nc(NC4CCOCC4)ncc3F)c(F)c2C1=O", "IC50", "> 10 µM"),
    ("O=C(Nc1ccc2ccccc2c1)c1cccnc1NCc1ccnc2[nH]ccc12", "IC50", "> 20 µM"),
    ("CC(C)(C)c1ccc(NC(=O)c2cc(F)cnc2NCc2ccnc3[nH]ccc23)cc1", "IC50", "> 20 µM"),
    ("C[C@H]1SC(N)=N[C@](C)(c2cc(NC(=O)c3cnc(OCC(F)F)cn3)ccc2F)[C@H]1F", "IC50", "≥ 20 µM"),
]

The record that follows has no IC50 shown yet.
// lookup IC50 for C[C@@H](c1ccc(-c2cc([S+](C)[O-])ccn2)cc1)N1CC[C@](CC(C)(C)O)(c2ccccc2)OC1=O (stereo partly drawn)
> 50 µM

---

Literature survey of IC50 (system: Cytochrome P450 3A4 (Homo sapiens)).

For orientation, consider the following solved cases.
# chemical-string, reported-property, reported-result
measured = [
    ("CCc1nn2cc(F)c(N3CCN(CC(=O)N4CC(O)C4)CC3)cc2c1N(C)c1nc(-c2ccc(F)cc2)c(C#N)s1", "IC50", "> 50 µM"),
    ("C[C@@H](C#N)NC(=O)c1ccc(-c2nc(Nc3cnn(C4CCN(C)CC4)c3)ncc2F)cc1", "IC50", "> 50 µM"),
]

Short answer please: IC50, Cytochrome P450 3A4 (Homo sapiens), entry CS(=O)(=O)CC(=O)Nc1c(-c2ccc(F)c(F)c2)nn2c1C(=O)N[C@@]1(CCc3cc(F)cc(F)c31)C2
> 20 µM

---

Reported IC50 on Cytochrome P450 3A4 (Homo sapiens) for assorted compounds, compiled from publications.

Solved entries (count: 3):
# chemical-string, reported-result
data = [
    ("Cc1ccc(Cn2c(=O)n(C[C@H](C)C(=O)O)c(=O)[nH]/c2=N\\c2ccc(Oc3cccc(F)n3)cc2)cc1", "> 20 µM"),
    ("O=c1[nH]/c(=N\\c2ccc(Oc3ncccc3F)cc2)n(Cc2ccc(Cl)cc2)c(=O)n1[C@H]1C[C@H](C(=O)O)C1", "> 20 µM"),
    ("O=C(O)Cc1ccc(B2C=CC=CN2)cc1", "> 20 µM"),
]

Here's the next entry for you.
Query IC50 on Cytochrome P450 3A4 (Homo sapiens) for C[C@@]1(c2cc(NC(=O)c3ccc(OCF)cn3)ccc2F)C[C@@H](C(F)(F)F)OC(N)=N1
> 50 µM

---

Collected IC50 for Cytochrome P450 3A4 (Homo sapiens, UniProt P08684) across several studies; compounds listed below.

Use these answered entries as a reference point.
# compound, IC50
data = [
    ("C[C@H]1SC(N)=N[C@](C)(c2cc(NC(=O)c3cnc(C(F)F)cn3)ccc2F)[C@H]1F", "≥ 20 µM"),
    ("Clc1ccc(NC2=NN=C(OCc3ccncc3)C3SC=CC23)cc1 (centres unmarked)", "0.12 µM"),
    ("O=C(NCCS(=O)(=O)c1ccc(C(F)(F)F)cn1)c1ccc(-c2ccccc2)cc1", "> 20 µM"),
    ("C[C@]1(c2cc(NC(=O)c3ncc(Cl)cc3Cl)ccc2F)N=C(N)OCC1(F)F", "> 10 µM"),
    ("Cc1nc(C(=O)Nc2ccc(F)c([C@@]3(C)N=C(N)O[C@H](C(F)(F)F)[C@@H]3C)c2)co1", "≥ 20 µM"),
]

Form field: IC50 recorded for COCC(F)(F)[C@H]1OC(N)=N[C@](C)(c2cc(NC(=O)c3cnc(OCF)cn3)ccc2F)[C@H]1F with Cytochrome P450 3A4 (Homo sapiens, UniProt P08684) (enter value)
≥ 10 µM

// fetch Cytochrome P450 3A4 (Homo sapiens, UniProt P08684) IC50 for CN1CCN(c2ncc(S(=O)(=O)N3CCN(Cc4cncn4CCOc4ccc(Cl)cc4)CC3)s2)CC1
0.0012 µM

---

pIC50: −log10 of the molar value.
// cross-source set; read-out = pIC50; system = Cytochrome P450 3A4 (Homo sapiens, UniProt P08684)

# compound, experimental-system, reported-property, reported-result
measured = [
    ("Cc1cc(Nc2ncc(Cl)c(Nc3cn(C)nc3S(=O)(=O)C(C)C)n2)c(OC2CC2)cc1C1CCN(C(=O)C(F)(F)F)CC1", "Cytochrome P450 3A4 (Homo sapiens, UniProt P08684)", "pIC50", "< 5.00"),
    ("Cc1nc(C)c(-c2csc(NC(=O)Cc3ccc(S(C)(=O)=O)cc3)n2)s1", "Cytochrome P450 3A4 (Homo sapiens, UniProt P08684)", "pIC50", "< 4.70"),
    ("O=C(O)[C@H]1CCCN(S(=O)(=O)c2ccccc2C(F)(F)F)C1", "Cytochrome P450 3A4 (Homo sapiens, UniProt P08684)", "pIC50", "< 4.30"),
    ("COc1ccccc1N1CCN(CCCCNC(=O)c2ccc(B3C=CC=CN3)cc2)CC1", "Cytochrome P450 3A4 (Homo sapiens, UniProt P08684)", "pIC50", 4.96),
    ("[2H]C([2H])(c1ccc(OCC)cc1)c1cc([C@@H]2O[C@H](CO)[C@@H](O)[C@H](O)[C@H]2O)ccc1Cl", "Cytochrome P450 3A4 (Homo sapiens, UniProt P08684)", "pIC50", "~3.00"),
]

Now take the following compound into account.
I'm curious: which pIC50 was measured for C[C@@H](c1ccc(-c2ccccn2)cc1)N1CC[C@](CCCNS(C)(=O)=O)(c2ccc(F)cc2)OC1=O tested on Cytochrome P450 3A4 (Homo sapiens, UniProt P08684)?
4.53
